This listing pairs compounds with measured phospho-S6 immunofluorescence (z-score).
- System: MDA-MB-468
- test.summary: phospho-S6 immunofluorescence (DAPI-normalised), per-plate z-score; higher = higher phospho-S6 signal (less pathway suppression)
- details: co-treatment: vehicle; 24 h
Where a name gives a salt, the structure may show the parent alone.
observation.type: phospho-S6 immunofluorescence (z-score)

- compound: "NC(N)=Nc1nc(CSCC/C(N)=N/S(N)(=O)=O)cs1 [Famotidine] (compound 10 µM)"
  observation.type: "phospho-S6 immunofluorescence (z-score)"
  data.value: -0.29
- compound: "CN(C)[C@@H]1CCc2[nH]c3ccc(NC(=O)c4ccc(F)cc4)cc3c2C1 (compound 10 µM)"
  observation.type: "phospho-S6 immunofluorescence (z-score)"
  data.value: -0.54
- compound: "O=C1NCC2(CCN(CCc3ccccc3)CC2)O1 [Fenspiride (Hydrochloride)] (compound 10 µM)"
  observation.type: "phospho-S6 immunofluorescence (z-score)"
  data.value: 1.01
- compound: "O=C(CCCN1CC=C(n2c(=O)[nH]c3ccccc32)CC1)c1ccc(F)cc1 [Droperidol] (compound 10 µM)"
  observation.type: "phospho-S6 immunofluorescence (z-score)"
  data.value: 0.18
- compound: "COc1ccc(CCN2CCN(CCCc3ccccc3)CC2)cc1OC [SA4503 (dihydrochloride)] (compound 10 µM)"
  observation.type: "phospho-S6 immunofluorescence (z-score)"
  data.value: -0.47
- compound: "O=C(Nc1ccc(Cl)cc1CN1C(=O)c2ccccc2C1=O)c1ccccc1O (compound 10 µM)"
  observation.type: "phospho-S6 immunofluorescence (z-score)"
  data.value: -0.57
- compound: "CC(O)Cn1cnc2c1c(=O)n(C)c(=O)n2C (stereo not given) [Proxyphylline] (compound 10 µM)"
  observation.type: "phospho-S6 immunofluorescence (z-score)"
  data.value: -0.72
- compound: "NC(=O)[C@@H]1CCCC[C@@H]1C(=O)Nc1ccc(Cl)c(Cl)c1 (compound 10 µM)"
  observation.type: "phospho-S6 immunofluorescence (z-score)"
  data.value: 0.47
- compound: "CN1CCN2c3ncccc3Cc3ccccc3C2C1 (stereo not given) [Mirtazapine] (compound 10 µM)"
  observation.type: "phospho-S6 immunofluorescence (z-score)"
  data.value: -0.48
- compound: "CN(C)CCC(c1ccccc1)c1ccccn1 (stereo not given) [Pheniramine (Maleate)] (compound 10 µM)"
  observation.type: "phospho-S6 immunofluorescence (z-score)"
  data.value: -0.37
- compound: "NCCCC[C@H](NC(=O)[C@@H]1CCCN1C(=O)[C@@H]1CSSC[C@H](NC(=O)CNC(=O)CNC(=O)CN)C(=O)N[C@@H](Cc2ccc(O)cc2)C(=O)N[C@@H](Cc2ccccc2)C(=O)N[C@@H](CCC(N)=O)C(=O)N[C@@H](CC(N)=O)C(=O)N1)C(=O)NCC(N)=O [Terlipressin] (compound 10 µM)"
  observation.type: "phospho-S6 immunofluorescence (z-score)"
  data.value: 0.08
- compound: "Fc1ccc(-c2cncc(CN3CCN(c4cccc5c4OCCO5)CC3)c2)cc1 [Adoprazine] (compound 10 µM)"
  observation.type: "phospho-S6 immunofluorescence (z-score)"
  data.value: -2.49
- compound: "OCCNC1CCCc2c1[nH]c1ccc(-c3ccccc3)cc21 (stereo not given) (compound 10 µM)"
  observation.type: "phospho-S6 immunofluorescence (z-score)"
  data.value: -9.39
- compound: "O=C(O)CCCN1CCC(O[C@@H](c2ccc(Cl)cc2)c2ccccn2)CC1 [Bepotastine (Beslilate)] (compound 10 µM)"
  observation.type: "phospho-S6 immunofluorescence (z-score)"
  data.value: 0.56
- compound: "Clc1ccc2c(c1)N=C(N1CCNCC1)c1ccccc1N2 [N-Desmethylclozapine] (compound 10 µM)"
  observation.type: "phospho-S6 immunofluorescence (z-score)"
  data.value: -0.88
